- Tested on: crabgrass (Digitaria sanguinalis)
- ASSAY INFO: Test B pre-/postemergence
- Type: in vivo
- Design: key: 0 is no effect; 10 is complete control
- TEST PARAMETERS: Rate 250 g/ha, Postemergence
REPORTED METRIC: Plant response rating, Crabgrass

COMPOUND: Cc1cnc(-c2ccc(Cl)cc2)nc1Cc1cccc(C(F)(F)F)c1 [Compound 28]
Plant response rating, Crabgrass: 10
--
COMPOUND: COC(c1cccc(C(F)(F)F)c1)c1nc(-c2ccc(C(F)(F)F)cc2)ncc1C (racemic) [Compound 20]
Plant response rating, Crabgrass: 3
--
COMPOUND: Cc1cnc(-c2ccc(F)cc2F)nc1Cc1cccc(C#N)c1 [Compound 34]
Plant response rating, Crabgrass: 1

Read the next record carefully.
What value of measured Plant response rating, Crabgrass is listed for CCc1cnc(-n2ccc(C(F)(F)F)n2)nc1Cc1cccc(OC(F)(F)F)c1 [Compound 47] ?
10

----------
- Test system: corn (Zea mays)
- ASSAY INFO: Test B pre-/postemergence
- Assay type: in vivo
- Set-up: key: 0 is no effect; 10 is complete control
- TEST PARAMETERS: Rate 500 g/ha, Preemergence
- Procedure: […] At the same time, these crop and weed species were also treated with postemergence applications of test chemicals formulated in the same manner. […] Treated plants and controls were maintained in a greenhouse for twelve to sixteen days, after which all species were compared to controls and visually evaluated. […]
Reported Plant response rating, Corn is given for each of the following molecules.
Form: value (number only, do not type unit).

Answered examples (3):
SMILES STR: Cc1cnc(-c2ccc(C(F)(F)F)cc2)nc1Cn1cnc(C(F)(F)F)n1
TGT: corn (Zea mays)
Plant response rating, Corn: 0

SMILES STR: Cc1cnc(-c2ccc(C(F)(F)F)cc2)nc1Cn1cc(Br)cn1
TGT: corn (Zea mays)
Plant response rating, Corn: 1

SMILES STR: Cc1cnc(-n2cnc(C(F)(F)F)n2)nc1C(=O)c1cccc(OC(F)(F)F)c1
TGT: corn (Zea mays)
Plant response rating, Corn: 4

What value of measured Plant response rating, Corn is listed for "Cc1cnc(-n2ccc(C(F)(F)F)n2)nc1Cn1ccc(C(F)(F)F)n1" ?
8

What value of measured Plant response rating, Corn is listed for "Cc1cnc(-n2cnc(C(F)(F)F)c2)nc1C(=O)c1cccc(C(F)(F)F)c1" ?
2

What value of measured Plant response rating, Corn is listed for "Cc1cnc(-n2cnc(C(F)(F)F)c2)nc1C(=O)c1cccc(OC(F)(F)F)c1" ?
2

What value of measured Plant response rating, Corn is listed for "Cc1cnc(-c2ccc(C(F)(F)F)cc2)nc1Cn1cnc(C(F)(F)F)c1" ?
1

What value of measured Plant response rating, Corn is listed for "Cc1cnc(-n2ccc(C(F)(F)C(F)(F)F)n2)nc1C(=O)c1cccc(C(F)(F)F)c1" ?
1

----------
- Tested on: blackgrass (Alopecurus myosuroides)
- ASSAY INFO: Test B pre-/postemergence
- Type: in vivo
- TEST PARAMETERS: Rate 125 g/ha, Postemergence
Reported Plant response rating, Blackgrass is given for each of the following molecules.
Form: value (number only, do not type unit).

MOLECULE: Cc1cnc(-c2ccc(C(F)(F)F)cc2)nc1C(C)c1cccc(C(F)(F)F)c1 (racemic)
REPORTED METRIC: Plant response rating, Blackgrass
NUMERIC READOUT: 1

MOLECULE: COC(=O)C(c1cccc(C(F)(F)F)c1)c1nc(-c2ccc(C(F)(F)F)cc2)ncc1C (racemic)
REPORTED METRIC: Plant response rating, Blackgrass
NUMERIC READOUT: 2

MOLECULE: Cc1cnc(-c2ccc(C(F)(F)F)cc2)nc1Cc1cccc(C#N)c1
REPORTED METRIC: Plant response rating, Blackgrass
NUMERIC READOUT: 2

// lookup Plant response rating, Blackgrass | system=blackgrass (Alopecurus myosuroides) | key= "Cc1cnc(-c2ccccc2F)nc1Cc1cccc(C#N)c1"
0

// lookup Plant response rating, Blackgrass | system=blackgrass (Alopecurus myosuroides) | key= "COc1cnc(-n2ccc(C(F)(F)F)n2)nc1Cc1cccc(C(F)(F)F)c1"
0

// lookup Plant response rating, Blackgrass | system=blackgrass (Alopecurus myosuroides) | key= "Cc1cnc(-n2cnc(C(F)(F)F)c2)nc1Cc1cccc(C(F)(F)F)c1"
5

// lookup Plant response rating, Blackgrass | system=blackgrass (Alopecurus myosuroides) | key= "Cc1cnc(-c2ccc(F)cc2F)nc1Cc1cccc(C(F)(F)F)c1"
2

// lookup Plant response rating, Blackgrass | system=blackgrass (Alopecurus myosuroides) | key= Cc1cnc(-c2ccc(C(F)(F)F)cc2)nc1C(Cl)c1cccc(C(F)(F)F)c1 (racemic)
4

----------
Reported Redroot pigweed plant response rating is given for each of the following compounds.
- System: pigweed (Amaranthus retroflexus)
- ASSAY INFO: Test B pre-/postemergence
- Type: in vivo
- Parameters: key: 0 is no effect; 10 is complete control
- TEST PARAMETERS: Rate 125 g/ha, Preemergence
Form: value (number only, do not type unit).

Answered examples (3):
COMPOUND: Cc1cnc(-c2ccc(C(F)(F)F)cc2)nc1Cc1cccc(C#N)c1
Redroot pigweed plant response rating: 10
//
COMPOUND: CCc1cnc(-c2ccc(C(F)(F)F)cc2)nc1Cc1cccc(OC(F)(F)F)c1
Redroot pigweed plant response rating: 10
//
COMPOUND: Cc1cnc(-c2ccc(F)c(Cl)c2)nc1Cc1cccc(C(F)(F)F)c1
Redroot pigweed plant response rating: 3

What value of measured Redroot pigweed plant response rating is listed for "Cc1cnc(-c2ccc(F)cc2F)nc1Cc1cccc(C#N)c1" ?
0

----------
- Test system: smallflower flatsedge (Cyperus difformis)
- ASSAY INFO: Test B flood test
- Assay type: in vivo
- Design: key: 0 is no effect; 10 is complete control
- TEST PARAMETERS: Rate 250 g/ha, Postemergence (flood test species)
REPORTED METRIC: Plant response rating, S. Flatsedge

Answered examples (2):
SMILES STR: O=C(c1cccc(C(F)(F)F)c1)c1ccnc(-c2ccc(F)cc2F)n1
TGT: smallflower flatsedge (Cyperus difformis)
Plant response rating, S. Flatsedge: 0
--
SMILES STR: Cc1cnc(-c2ccc(Cl)cc2F)nc1Cc1cccc(C(F)(F)F)c1
TGT: smallflower flatsedge (Cyperus difformis)
Plant response rating, S. Flatsedge: 8

Read the next record carefully.
What value of measured Plant response rating, S. Flatsedge is listed for "CCc1cnc(-c2ccc(C(F)(F)F)cc2)nc1Cc1cccc(C(F)(F)F)c1" ?
9

----------
- System: momingglory (Ipomoea hederacea)
- ASSAY INFO: Test B pre-/postemergence
- Format: in vivo
- TEST PARAMETERS: Rate 125 g/ha, Preemergence
Reported Morningglory plant response rating is given for each of the following compounds.
Form: value (number only, do not type unit).

Answered examples (8):
COMPOUND: Cc1cnc(-c2ccc(F)c(Cl)c2)nc1Cc1cccc(C#N)c1
Morningglory plant response rating: 1
//
COMPOUND: Cc1cnc(-c2ccc(C#N)cc2)nc1Cc1cccc(C(F)(F)F)c1
Morningglory plant response rating: 1
//
COMPOUND: Cc1cnc(-c2ccccc2)nc1Cn1ccc(C(F)(F)F)n1
Morningglory plant response rating: 0
//
COMPOUND: Cc1cnc(-c2ccc(Cl)cc2)nc1Cc1cccc(C#N)c1
Morningglory plant response rating: 0
//
COMPOUND: Cc1cnc(-c2ccc(Cl)c(Cl)c2)nc1Cc1cccc(C#N)c1
Morningglory plant response rating: 0
//
COMPOUND: CCc1cnc(-n2cnc(C(F)(F)F)c2)nc1Cc1cccc(OC(F)(F)F)c1
Morningglory plant response rating: 3
//
COMPOUND: Cc1cnc(-c2ccc(C(F)(F)F)cc2)nc1C(C#N)c1cccc(C(F)(F)F)c1 (racemic)
Morningglory plant response rating: 1
//
COMPOUND: Cc1cnc(-n2cnc(C(F)(F)F)c2)nc1Cc1cccc(C(F)(F)F)c1
Morningglory plant response rating: 9

Read the next record carefully.
What value of measured Morningglory plant response rating is listed for "Cc1cnc(-c2ccc(Cl)cc2)nc1Cc1cccc(C(F)(F)F)c1" ?
2

----------
- Tested on: rice (Oryza sativa)
- ASSAY INFO: Test B flood test
- Format: in vivo
- Parameters: key: 0 is no effect; 10 is complete control
- TEST PARAMETERS: Rate 62 g/ha, Postemergence (flood test)
- Experimental: At the same time, these crop and weed species were also treated with postemergence applications of test chemicals formulated in the same manner. Plants ranged in height from 2 to 18 cm (1- to 4-leaf stage) for postemergence treatments. […] Treated plants and controls were maintained in a greenhouse for twelve to sixteen days, after which all species were compared to controls and visually evaluated. […]
REPORTED METRIC: Rice plant response rating
Form: value (number only, do not type unit).

MOLECULE: O=C(c1cccc(C(F)(F)F)c1)c1ccnc(-n2ccc(C(F)(F)F)n2)n1 [Compound 70]
REPORTED METRIC: Rice plant response rating
NUMERIC READOUT: 0

MOLECULE: Cc1cnc(-n2cnc(C(F)(F)F)n2)nc1C(=O)c1cccc(C(F)(F)F)c1 [Compound 67]
REPORTED METRIC: Rice plant response rating
NUMERIC READOUT: 1

MOLECULE: COc1cnc(-n2ccc(C(F)(F)F)n2)nc1C(=O)c1cccc(C(F)(F)F)c1 [Compound 60]
REPORTED METRIC: Rice plant response rating
NUMERIC READOUT: 0

Read the next record carefully.
What value of measured Rice plant response rating is listed for CCc1cnc(-n2ccc(C(F)(F)F)n2)nc1C(=O)c1cccc(C(F)(F)F)c1 [Compound 69] ?
0
